Measured inhibition at 10 µM values are reported for all entries that follow.
Target: BTK (Homo sapiens)
Sequence (Q06187 402-655 limits assumed): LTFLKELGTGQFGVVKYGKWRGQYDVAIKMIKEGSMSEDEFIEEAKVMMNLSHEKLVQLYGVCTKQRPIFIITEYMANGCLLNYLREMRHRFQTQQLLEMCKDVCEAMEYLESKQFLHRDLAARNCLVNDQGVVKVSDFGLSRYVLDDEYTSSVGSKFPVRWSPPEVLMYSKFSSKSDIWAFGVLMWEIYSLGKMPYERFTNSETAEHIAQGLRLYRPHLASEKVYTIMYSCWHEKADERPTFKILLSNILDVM
Assay: biochemical
Conditions: read-out: BTK inhibition (%), 0.75 uM BTK, […] probe 3l, 15 min preincubation
Endpoint Label: inhibition at 10 µM (%)

>>> df
                                   molecule  quantitative_readout
0         COc1ccc(/C=C/c2cc(OC)cc(=O)o2)cc1                  -2.3
1  Cc1onc(-c2ccccc2Cl)c1C(=O)N[C@@H]1C(=O)N2[C@@H]1SC(C)(C)[C@@H]2C(=O)O                  -5.4
2  COc1cc2c(cc1OC)-c1c(C)c3ccc(OC)c(OC)c3c[n+]1CC2                     0
3  CCN(CC)CCCC(C)Nc1c2ccc(Cl)cc2nc2ccc(OC)cc12 (centres unmarked)                  -8.5
4                           CC(=O)Nc1ccccc1                 -14.5

---

Molecular target: BTK (Homo sapiens)
Assay: biochemical
Settings: read-out: BTK inhibition (%), 0.75 uM BTK, […] probe 3l, 15 min preincubation
Where a SMILES comes first, the peptide text is derived from it. [ ]: non-standard residue; d: D form. Nle = CCCC[C@H](N)C(=O)O
Form field: inhibition at 10 µM (one value per entry).
Endpoint Label: inhibition at 10 µM (%)

In [3]: df
Out[3]:
                                   compound       endpoint_label  quantitative_readout
0  O=C(Nc1ncc(SCCN2CCCC2)s1)[C@]1(c2ccc(S(=O)(=O)C3CC3)cc2)C[C@H]1C1CCCCC1  inhibition at 10 µM                  -8.6
1                   O=C(O)CC[C@@H](O)C(=O)O  inhibition at 10 µM                 -13.6
2  COc1cc2c3cc1Oc1c(OC)c(OC)cc4c1[C@@H](Cc1ccc(O)c(c1)Oc1ccc(cc1)C[C@@H]3N(C)CC2)N(C)CC4  inhibition at 10 µM                  21.4
3  CCOC(=O)C1=C(C)NC(=S)NC1c1cccc(O)c1 (centres unmarked)  inhibition at 10 µM                 -25.5
4  O=C(NC[C@H](O)CN1CCc2ccccc2C1)c1cc(NC2COC2)ncn1  inhibition at 10 µM                   1.5
5  O=C(/C=C/c1ccc(O)c2c1[C@H](C(=O)O)[C@@H](c1ccc(O)c(O)c1)O2)O[C@H](Cc1ccc(O)c(O)c1)C(=O)O  inhibition at 10 µM                   8.5
6  Cn1c(=O)c(F)c(Nc2ccc(I)cc2F)c2c(=O)n(C[C@@H](O)CO)cnc21  inhibition at 10 µM                   7.6
7  CCCC[C@@H](C=O)NC(=O)[C@H](CC(C)C)NC(=O)[C@H](CC(C)C)NC(C)=O [PCM-0215374] (Ac-Leu-Leu-[Nle]-aldehyde)  inhibition at 10 µM                  18.5

---

Biological target: UniProt:Q06187
Assay: biochemical
Conditions: read-out: BTK inhibition (%), 0.75 uM BTK, […] probe 3l, 15 min preincubation
# Lookup of reported inhibition at 10 µM keyed by entry
Endpoint Label: inhibition at 10 µM (%)

>>> df
                            molecule_smiles  quantitative_readout
0  Cc1nc(N)sc1-c1ccnc(Nc2ccc(N3CCOCC3)cc2)n1                  57.2
1  C[C@@]1(F)[C@H](O)[C@@H](CO)O[C@H]1n1ccc(=O)[nH]c1=O                   -20
2  Nc1ccc(F)cc1NC(=O)c1ccc(CNC(=O)/C=C/c2cccnc2)cc1                  -5.4
3                CS(=O)(=O)OCCCCOS(C)(=O)=O                  -1.4
4  CS(=O)(=O)c1ccc([C@@H](O)[C@@H](CO)NC(=O)C(Cl)Cl)cc1                  -8.6
5  Cc1c(-c2ccnn2C)cc(C(=O)NCc2ccc(S(C)(=O)=O)cn2)c(=O)n1-c1cccc(C(F)(F)F)c1                  -3.1
6     CC(=O)OCC(CCn1cnc2cnc(N)nc21)COC(C)=O                 -20.2
7  O=S(=O)(c1ccccc1)N(CC(F)(F)F)c1ccc(C(O)(C(F)(F)F)C(F)(F)F)cc1                    27
